Measured MIC values are reported for all entries that follow.
- System: Pseudomonas aeruginosa Ps-24
- assay.procedure: MIC, antimicrobial activity
- test.conditions: Pseudomonas aeruginosa, PS24, read-out: Minimum Inhibitory Concentration (MIC), Pseudomonas aeruginosa Ps-24
recorded.metric: MIC

molecule	tgt	recorded.metric	result
NC[C@H]1O[C@H](O[C@H]2[C@H](O)[C@@H](O[C@H]3O[C@H](CO)[C@@H](O)[C@H](N)[C@H]3O)[C@H](NC(=O)C(O)C3CCCNC3)C[C@@H]2N)[C@H](N)C[C@@H]1O (some centres unmarked)	Pseudomonas aeruginosa Ps-24	MIC	12.5 µg/mL
NC[C@H]1O[C@H](O[C@H]2[C@H](O)[C@@H](O[C@H]3O[C@H](CO)[C@@H](O)[C@H](N)[C@H]3O)[C@H](NC(=O)C(O)C3CNC3)C[C@@H]2N)[C@H](N)C[C@@H]1O (some centres unmarked)	Pseudomonas aeruginosa Ps-24	MIC	0.4 µg/mL
NC[C@H]1O[C@H](O[C@H]2[C@H](O)[C@@H](O[C@H]3O[C@H](CO)[C@@H](O)[C@H](N)[C@H]3O)[C@H](N)C[C@@H]2N)[C@H](N)C[C@@H]1O [TOB, tobramycin, reference compound]	Pseudomonas aeruginosa Ps-24	MIC	0.39 µg/mL
NC[C@H]1O[C@H](O[C@H]2[C@H](O)[C@@H](O[C@H]3O[C@H](CO)[C@@H](O)[C@H](N)[C@H]3O)[C@H](NC(=O)C(O)C3CCN3)C[C@@H]2N)[C@H](N)C[C@@H]1O (some centres unmarked)	Pseudomonas aeruginosa Ps-24	MIC	1.6 µg/mL
NC[C@H]1O[C@H](O[C@H]2[C@H](O)[C@@H](O[C@H]3O[C@H](CO)[C@@H](O)[C@H](N)[C@H]3O)[C@H](NC(=O)C(O)C3CCNC3)C[C@@H]2N)[C@H](N)C[C@@H]1O (some centres unmarked)	Pseudomonas aeruginosa Ps-24	MIC	1.6 µg/mL
